Where do the numbers come from? From patent US12077566B2.

test system: human lung cancer A549 cells; test: Orthotopic transplantation tumor model of human lung cancer A549 cells; details: after administration for 28 days;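 further: test animals were NOG mice aged 6-8 weeks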
measured_parameter: Mice weight after experiment (g)
Give just the number in g; leave the unit off.

Reported Mice weight after experiment for rLZ-8 (D20H): rLZ-8 mutant after surface potential optimization, D20H (protein) MSDTALIFRLAWDVKKLSFHYTPNWGRGNPNNFIDTVTFPKVLTDKAYTYRVAVSGRNLGVKPSYAVESDGSQKVNFLEYNSGYGIADTNTIQVFVVDPDTNNDFIIAQWN : what is it?
19.9

Reported Mice weight after experiment for rLZ-8 (K46E): rLZ-8 mutant K46E (protein) MSDTALIFRLAWDVKKLSFDYTPNWGRGNPNNFIDTVTFPKVLTDEAYTYRVAVSGRNLGVKPSYAVESDGSQKVNFLEYNSGYGIADTNTIQVFVVDPDTNNDFIIAQWN : what is it?
20.4

Reported Mice weight after experiment for rLZ-8 (D70K): rLZ-8 mutant after surface potential optimization, D70K (protein) MSDTALIFRLAWDVKKLSFDYTPNWGRGNPNNFIDTVTFPKVLTDKAYTYRVAVSGRNLGVKPSYAVESKGSQKVNFLEYNSGYGIADTNTIQVFVVDPDTNNDFIIAQWN : what is it?
21.1

Reported Mice weight after experiment for rLZ-8 (K16A/S18A/K41A/D45A): alanine mutant of rLZ-8 at K16, S18, K41 and D45 (protein) MSDTALIFRLAWDVKALAFDYTPNWGRGNPNNFIDTVTFPAVLTAKAYTYRVAVSGRNLGVKPSYAVESDGSQKVNFLEYNSGYGIADTNTIQVFVVDPDTNNDFIIAQWN : what is it?
17.6

Reported Mice weight after experiment for rLZ-8 (R9A): alanine mutant of rLZ-8 at R9 (protein) MSDTALIFALAWDVKKLSFDYTPNWGRGNPNNFIDTVTFPKVLTDKAYTYRVAVSGRNLGVKPSYAVESDGSQKVNFLEYNSGYGIADTNTIQVFVVDPDTNNDFIIAQWN : what is it?
20.0

Reported Mice weight after experiment for rLZ-8 (D20H/D70K): rLZ-8 mutant after surface potential optimization, D20H and D70K (protein) MSDTALIFRLAWDVKKLSFHYTPNWGRGNPNNFIDTVTFPKVLTDKAYTYRVAVSGRNLGVKPSYAVESKGSQKVNFLEYNSGYGIADTNTIQVFVVDPDTNNDFIIAQWN : what is it?
20.6

Reported Mice weight after experiment for rLZ-8 (K46E/K74E): rLZ-8 mutant K46E and K74E (protein) MSDTALIFRLAWDVKKLSFDYTPNWGRGNPNNFIDTVTFPKVLTDEAYTYRVAVSGRNLGVKPSYAVESDGSQEVNFLEYNSGYGIADTNTIQVFVVDPDTNNDFIIAQWN : what is it?
20.0

Reported Mice weight after experiment for rLZ-8 (K16A/K41A): alanine mutant of rLZ-8 at K16 and K41 (protein) MSDTALIFRLAWDVKALSFDYTPNWGRGNPNNFIDTVTFPAVLTDKAYTYRVAVSGRNLGVKPSYAVESDGSQKVNFLEYNSGYGIADTNTIQVFVVDPDTNNDFIIAQWN : what is it?
17.4

Reported Mice weight after experiment for rLZ-8 (K41D/K46E/K74E): rLZ-8 mutant K41D, K46E and K74E (protein) MSDTALIFRLAWDVKKLSFDYTPNWGRGNPNNFIDTVTFPDVLTDEAYTYRVAVSGRNLGVKPSYAVESDGSQEVNFLEYNSGYGIADTNTIQVFVVDPDTNNDFIIAQWN : what is it?
19.1

Reported Mice weight after experiment for rLZ-8 (S18A): alanine mutant of rLZ-8 at S18 (protein) MSDTALIFRLAWDVKKLAFDYTPNWGRGNPNNFIDTVTFPKVLTDKAYTYRVAVSGRNLGVKPSYAVESDGSQKVNFLEYNSGYGIADTNTIQVFVVDPDTNNDFIIAQWN : what is it?
17.8
